# Target of assay: HKU4 HR2 peptide (HKU4), A3EX94
# Sequence (A3EX94 1228-1249 limits assumed): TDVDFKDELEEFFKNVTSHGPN
# Assay summary: peptide ELISA

{"Binder": "hr2.019 (antibody, V domains shown) VH: EVQLVESGGGLVKPGGSLRLSCAASGSSVIDVWMNWVRQAPGKGLEWVGRIKTKASGAATDYGAPVKGRFTISRDDSKNLSYLQMNSLRAEDTGIYYCTTSPLPNFDYWGRGTLVTVSS VL: DIVMTQSPDFLAVSLGETATINCRSSQSVFYFANNKNYLAWYQQKPGQPPKLLIYWASKRESGVPDRFSGSGSGTDFTLTISSLQAEDVATYYCQQYSSPAITFGPGTKVDIK", "EC50 / mg/L": 0.0154}
{"Binder": "hr2.094 (antibody, V domains shown) VH: EVQLVESGGGLVQPGGSLRLSCAASGFTFSTFWMTWVRQAPGKGLEWVANIKSDGSEKYYVDSVKGRFTISRDNAKNSLYLQMNSLRAEDTAVYYCATWFGLHWGQGTLVTVSS VL: DIVMTQSPDSLAVSLGERASINCKSSQTVLYSSNNKNYLAWYQQKPGQPPKLLIHWASTRDSGVPDRFSGSGSGTDFTLTISSLQAEDVAVYYCQQYHRIPWTFGRGTKVEIK", "EC50 / mg/L": 0.0157}
{"Binder": "hr2.017 (antibody, V domains shown) VH: EVQLVESGGGLVQPGGSLRLSCAVSGFAFSSSWMHWIRQAPGRGLVWVSRINRDGSTTDYADSVKGRFTISRDNAKATLYLQMNSLRAEDTAVYYCATMGFDYWGQGALVTVSS VL: DIVMTQSPDSLAVSLGERATINCKSSQNVLYSSNNKNHLSWYQQKPGQPPKLLIYWASTRKSGVPDRFSGSGSGTDFTLTINSLQAEDVAVYYCQQYFSTPNTFGQGTKLEIK", "EC50 / mg/L": 0.0203}
